Values from PubChem BioAssay AID1779

- study-system: Tyrosine-protein phosphatase non-receptor type 22 (Homo sapiens)
- experiment-notes: PTPN22 lymphoid phosphatase activity blockers – biochemical, fluorescence intensity, uHTS (AID 1779);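 note: plate controls were vehicle with enzyme for no effect and no enzyme for full effect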
- condition-details: recombinant LYP phosphatase, at 11.5 µM, hits give high values
In all, about 290,000 compounds went through this assay and about 160 (0.055%) were called active. Only a selection was taken, and actives are over-represented in it overall.
Items are presented alongside their recorded inhibition.
The reply should contain only the number, in %.

Recorded inhibition, per entry:
COc1cc(N(C)C)c([N+](=O)[O-])cc1C(=O)NC(C)CNc1ccc([N+](=O)[O-])cc1Cl (stereo not given)	-7.4
O=[N+]([O-])c1cc(Br)cc(/C=N/n2cnnc2)c1O	76.8
O=[N+]([O-])c1cc(Cl)cc(/C=N/n2cnnc2)c1O	3.8
CCc1ccc2c(CC(=O)Nc3nnc(C4CC4)s3)coc2c1	-7.3

Ask: Using the record for O=C(O)CCN1C(=O)/C(=C/c2ccc(-c3nc4ccccc4s3)o2)SC1=S , state its measured inhibition.
Reply: 14.6

====

- study-system: Tyrosine-protein phosphatase non-receptor type 22 (Homo sapiens) (UniProt Q9Y2R2)
- Sequence (Q9Y2R2 whole entry, looked up): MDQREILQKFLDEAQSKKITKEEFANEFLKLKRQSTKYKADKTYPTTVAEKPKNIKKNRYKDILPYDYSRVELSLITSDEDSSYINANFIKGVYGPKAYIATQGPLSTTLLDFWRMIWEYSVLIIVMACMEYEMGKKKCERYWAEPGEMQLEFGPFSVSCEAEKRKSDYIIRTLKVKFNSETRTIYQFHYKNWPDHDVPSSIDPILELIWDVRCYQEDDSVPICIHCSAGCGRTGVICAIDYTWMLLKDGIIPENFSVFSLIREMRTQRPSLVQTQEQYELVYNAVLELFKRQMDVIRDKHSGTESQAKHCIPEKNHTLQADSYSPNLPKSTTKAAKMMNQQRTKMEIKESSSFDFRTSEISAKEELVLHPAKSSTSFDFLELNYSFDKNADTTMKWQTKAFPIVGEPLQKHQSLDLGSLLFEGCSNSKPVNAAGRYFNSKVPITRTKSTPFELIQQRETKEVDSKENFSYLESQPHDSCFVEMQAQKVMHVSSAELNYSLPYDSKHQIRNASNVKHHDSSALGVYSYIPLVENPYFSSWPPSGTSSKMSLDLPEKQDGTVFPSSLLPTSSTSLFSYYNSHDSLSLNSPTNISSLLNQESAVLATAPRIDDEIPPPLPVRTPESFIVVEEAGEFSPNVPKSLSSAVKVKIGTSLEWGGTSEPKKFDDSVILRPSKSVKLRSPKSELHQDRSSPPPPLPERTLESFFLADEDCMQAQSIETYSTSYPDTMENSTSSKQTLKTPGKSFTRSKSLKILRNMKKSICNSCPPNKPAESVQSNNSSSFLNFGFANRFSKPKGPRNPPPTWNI
- experiment-notes: PTPN22 lymphoid phosphatase activity blockers – biochemical, fluorescence intensity, uHTS (AID 1779);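 note: plate controls were vehicle with enzyme for no effect and no enzyme for full effect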
- condition-details: recombinant LYP phosphatase, at 11.5 µM
In all, about 290,000 compounds went through this assay and about 160 (0.055%) were called active. Rule as the data show it: active = inhibition above about 50%; inactive = the rest. Only a selection was taken, and actives are over-represented in it overall.
Tick one outcome: active, inactive

See these solved cases before continuing.
CCCC(=O)NCCc1cc2ccc(C)c(C)c2[nH]c1=O	active
CCOC(=O)C1=NN(C(=O)c2cccc(Br)c2)C(O)(C(C)(C)C)C1 (stereo unspecified)	inactive
O=C(CN1C(=O)CSc2ccccc21)Nc1ccccc1C(=O)N1CCOCC1	inactive
CCCCOc1ccc(CN2CCCCC2)cc1	active
CCCCOc1ccc(CN2CCSCC2)cc1	inactive

Ask: Record lookup: outcome of this test for CCSc1nnc(NC(=O)C2CC=CCC2C(=O)O)s1 (stereo unspecified) ?
Reply: inactive

Ask: Check the results log: what was the call for COCCn1c(C)cc(C(=O)COc2ncnc3ccc(Br)cc23)c1C ?
Reply: inactive

Ask: Any idea what this test logged for CCCCCOc1ccc(CN2CCOCC2)cc1Cl ?
Reply: active

Ask: // outcome(item) with item = c1cc(OCCCN2CCCCC2)ccc1CN1CCCCC1
Reply: inactive

Ask: Just curious, what result did CCC(=O)NCCc1cc2ccc(C)c(C)c2[nH]c1=O get here?
Reply: inactive

Ask: Entry CCCOc1ccc(CN2CCOCC2)cc1OC : call = ?
Reply: inactive

Ask: # lookup: test call for CCCCCOc1ccc(Cl)cc1CN1CCOCC1
Reply: inactive

Ask: Name the outcome recorded for CC(=O)NCCc1cc2ccc(C)c(C)c2[nH]c1=O in the assay.
Reply: inactive

Ask: Recorded test call requested for OCC1(CCc2ccccc2)CCN(Cc2cc(Cl)ccc2O)CC1
Reply: inactive

Ask: I would be grateful if you could indicate the recorded call for O=C(COC(=O)c1ccccc1F)c1ccc(-n2nncc2-c2ccco2)cc1 .
Reply: inactive

Ask: Hello, I am checking results. What call was entered for COc1ccc(COC(=O)Nc2cn(C)nc2C(F)(F)F)cc1 ?
Reply: inactive

====

inhibition: recorded values
- study-system: Tyrosine-protein phosphatase non-receptor type 22 (Homo sapiens) (UniProt Q9Y2R2)
- experiment-notes: PTPN22 lymphoid phosphatase activity blockers – biochemical, fluorescence intensity, uHTS (AID 1779);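 note: plate controls were vehicle with enzyme for no effect and no enzyme for full effect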
- condition-details: recombinant LYP phosphatase, at 11.5 µM, hits give high values
Among all 290,000 compounds or so, about 160 (0.055%) were called active. This excerpt belongs to a sample that is enriched for actives.
Write it as a number; the unit % goes unstated.

Here is how some molecules turned out for inhibition.
CC(=O)Nc1cccc(NC(=O)c2c(-c3ccccc3Cl)noc2C)c1	-3.7
COc1c(C)cc(C(=O)C2CCCN(C(=O)c3csc(C)n3)C2)cc1C (stereo not given)	-11.3
CCOC(=O)C1CCN(S(=O)(=O)c2cc(Cl)c(C)cc2OC)CC1	0
CCCC(=O)Nc1ccc(Cl)c(NC(=O)CC)c1	-12.2
COc1ccc(CNC(=O)c2cc(-c3ccccc3O)n[nH]2)cc1	53.5

Ask: Give a short answer stating reported inhibition for N/C(=N\N=C\c1ccc2c(c1)OCO2)SC1CC(=O)N(c2ccc(C(=O)O)cc2)C1=O (stereo not given) .
Reply: 70

Ask: Answer with the recorded inhibition of CCN(CC)CCN(Cc1cc2cc3c(cc2[nH]c1=O)OCCO3)C(=S)NCCCOC only.
Reply: -16.1

Ask: Respond only with inhibition recorded for N/C(=N\N=C\c1ccco1)SC1CC(=O)N(c2ccc(C(=O)O)cc2)C1=O (stereo not given)
Reply: 1.7

Ask: # return recorded inhibition for entry C/C(=N\NC(=O)c1c(-c2ccccc2Cl)noc1C)c1cccc(NC(=O)C(C)C)c1
Reply: 77.1

Ask: State its inhibition for this molecule: COc1ccc(CNC(=O)c2cc(-c3cc(C)ccc3O)n[nH]2)cc1
Reply: -3.7
